Provenance of the data: the supplement of paper PMC10338343

test system: MILI (PIWIL2) piRISC loaded with L1MC piRNA (26 nt); assay: pre-steady-state target cleavage rate (min^-1); guide: L1MC piRNA 5'p-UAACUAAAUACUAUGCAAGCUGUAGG; higher = faster piRNA-guided slicing of the target; details: auxiliary factor: 500 nM mouse GTSF1;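 also: 1 nM active piRISC with 0.1 nM target library at 33 °C single turnover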
Everything with pre-steady-state target cleavage rate lower than 0.02 is No; everything else, including exactly 0.02, is Yes.

>>> df
                          residues  label
0   UCCUGGAUGUCGUUGGAAAGUAUUUAGUUA     No
1   UCCUGGAUGUCGUAGCAUAGUAAUUAGUUA     No
2    UCCUGGAUGUCCUUGCAUAGUAUUUGUUA     No
3  UCCUGGAUGUCGUUGCAUAGUAUUUCAGUUA    Yes
4   UCCUGGUACUGCUUGCAUAGUAAUUAGUUA    Yes
5  UCCUGGAUGUCGUAUGCAUAGUAUUUAGUUA    Yes
6   UCCUCCUACAGGUUGCAUAGUAUUUAGUAA    Yes

* * *

system: EfPiwi piRISC loaded with L1MC piRNA (26 nt); assay: pre-steady-state target cleavage rate (min^-1); auxiliary factor: 500 nM Ephydatia muelleri Gtsf1; guide: L1MC piRNA 5'p-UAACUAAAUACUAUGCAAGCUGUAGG; higher = faster piRNA-guided slicing of the target
Quick reference for pre-steady-state target cleavage rate among some sequences
measure-name: pre-steady-state target cleavage rate

                          residues    result
0   UCCUGCUACACCUUGCAUAGUUUUUAGUUA   0.00395
1  UCCUGGUACCAGCUUGCAUAGUAUUUAGUUA    0.0109
2   UCCUGGAACAGCUAGCAUAGUAUUUAGAAA   0.00262
3   UCCUCCAACAGCUUGCAUAGUAUUUAGAUA    0.0051
4   UCCUCGUACAGCUUCCAUAGUAUUUAGUUA   0.00339
5   UCCUCCUUCAGCUUGCAUAGUAUUAAGUUA   0.00716
6   UCCUGGUACAGUUUGCAUAGUAUUUAGUUA   0.00421
7    UCCUGGAUGUCGAACCAUAGUAUUUGUUA  < 0.0001
8   UCCUGGUAGAGCUUGCAUUGUAUUUAGUUA   0.00786

* * *

test system: MILI (PIWIL2) piRISC loaded with L1MC piRNA (26 nt); assay: pre-steady-state target cleavage rate (min^-1); guide: L1MC piRNA 5'p-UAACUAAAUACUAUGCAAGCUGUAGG; MIWI and MILI are mouse PIWI proteins and EfPiwi is from a freshwater sponge; tags in brackets are library labels; higher = faster piRNA-guided slicing of the target; conditions: auxiliary factor: none (no GTSF1);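 also: 1 nM active piRISC with 0.1 nM target library at 33 °C single turnover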
Quick reference for pre-steady-state target cleavage rate among some sequences
measure-name: pre-steady-state target cleavage rate

In [3]: df
Out[3]:
                          residues  quantitative_result
0   UCCUGGAUGUCGUUGCAUAGUAGUUAGUUA              0.00511
1   UCCUGGAUGUCCUAGCAUAGUUUUUAGUUA              0.00512
2   UCCUGGAACACCUUGCAUAGUAUUUAGUUA              0.00811
3  UCCUCCUACAGGCUUGCAUAGUAUUUAGUUA              0.00802
4  UCCUGGAUGAGCUUGCAUAGUAUUUAGUAUA              0.00501
5   UCCUGGAUCAGCUUGCAUAGUAAAUAGUUA              0.00496
6  UCCUGGAUGUCCUUGCAUAGUAGUUUAGUUA              0.00805
7  UCCUGGAUGUCGAUGGCAUAGUAUUUAGUUA              0.00792
